Values were extracted from ChEMBL document CHEMBL2010803.

Test system: Radical scavenging activity
Experiment: Antioxidant activity assessed as DPPH free radical scavenging activity at 100 uM after 20 mins by spectrophotometric analysis
Assay type: functional
Calls of active or inactive are those of the source. The rule behind the calls is not given here.
OBSERVABLE: Activity

Known Activity results, listed for orientation:
[
  {
    "COMPOUND": "CC(Cc1ccc(O)c(O)c1)C(C)Cc1ccc(O)c(O)c1 (stereo unspecified)",
    "OBSERVABLE": "Activity",
    "ASSAY VALUE": "80%"
  },
  {
    "COMPOUND": "CC(C)Cc1ccc(C(C)C(=O)NNC(=O)NCc2ccccc2)cc1 (stereo unspecified)",
    "OBSERVABLE": "Activity",
    "ASSAY VALUE": "inactive"
  },
  {
    "COMPOUND": "NNC(=O)NOCc1ccccc1",
    "OBSERVABLE": "Activity",
    "ASSAY VALUE": "6%"
  },
  {
    "COMPOUND": "CC(C(=O)NNC(=O)NCc1ccccc1)c1cccc(Oc2ccccc2)c1 (stereo unspecified)",
    "OBSERVABLE": "Activity",
    "ASSAY VALUE": "22%"
  },
  {
    "COMPOUND": "CC(C(=O)NN)c1cccc(Cc2ccccc2)c1 (stereo unspecified)",
    "OBSERVABLE": "Activity",
    "ASSAY VALUE": "inactive"
  }
]

Identify measured Activity corresponding to CC(C)Cc1ccc(C(C)C(=O)NNC(=O)NCC2CCCCC2)cc1 (stereo unspecified)
3%

Identify measured Activity corresponding to CC(C(=O)NNC(=O)NOCc1ccccc1)c1cccc(Cc2ccccc2)c1 (stereo unspecified)
3%

---

System: NCI-H460
Assay: Cytostatic activity against human NCI-H460 cells after 72 hrs by MTT assay
Format: functional, cell-based
Settings: NCI-H460, 72 h
Flag rule - IC50 less than 30 µM flags yes; the remaining entries get no.

[
  {
    "COMPOUND": "CC(C(=O)NNC(=O)NCC1CCCCC1)c1cccc(Cc2ccccc2)c1 (stereo not drawn)",
    "ASSIGNED CATEGORY": "yes"
  },
  {
    "COMPOUND": "CC(C(=O)NNC(=O)NNC(=O)NOCc1ccccc1)c1cccc(Oc2ccccc2)c1 (stereo not drawn)",
    "ASSIGNED CATEGORY": "no"
  },
  {
    "COMPOUND": "CC(C(=O)NNC(=O)NNC(=O)NO)c1cccc(Oc2ccccc2)c1 (stereo not drawn)",
    "ASSIGNED CATEGORY": "no"
  },
  {
    "COMPOUND": "CC(C)Cc1ccc(C(C)C(=O)NNC(=O)NNC(=O)NO)cc1 (stereo not drawn)",
    "ASSIGNED CATEGORY": "no"
  },
  {
    "COMPOUND": "CC(C(=O)NN)c1cccc(Oc2ccccc2)c1 (stereo not drawn)",
    "ASSIGNED CATEGORY": "no"
  }
]

Strictly below 30 µM: is that where IC50 of CC(C)Cc1ccc(C(C)C(=O)NNC(=O)NCC2CCCCC2)cc1 (stereo not drawn) sits?
yes

Strictly below 30 µM: is that where IC50 of CC(C(=O)NNC(=O)NO)c1cccc(Oc2ccccc2)c1 (stereo not drawn) sits?
no

Strictly below 30 µM: is that where IC50 of CC(C)Cc1ccc(C(C)C(=O)NNC(=O)NO)cc1 (stereo not drawn) sits?
no

Strictly below 30 µM: is that where IC50 of CC(C(=O)NNC(=O)NC(c1ccccc1)c1ccccc1)c1cccc(Cc2ccccc2)c1 (stereo not drawn) sits?
yes

Strictly below 30 µM: is that where IC50 of NNC(=O)NOCc1ccccc1 sits?
no

Strictly below 30 µM: is that where IC50 of CC(C)Cc1ccc(C(C)C(=O)NNC(=O)NCCc2ccccc2)cc1 (stereo not drawn) sits?
no

Strictly below 30 µM: is that where IC50 of CC(C(=O)NNC(=O)NCc1ccccc1)c1cccc(Oc2ccccc2)c1 (stereo not drawn) sits?
yes

Strictly below 30 µM: is that where IC50 of CC(C(=O)NNC(=O)NOCc1ccccc1)c1cccc(Cc2ccccc2)c1 (stereo not drawn) sits?
no

Strictly below 30 µM: is that where IC50 of CC(C(=O)NNC(=O)NC(c1ccccc1)c1ccccc1)c1cccc(Oc2ccccc2)c1 (stereo not drawn) sits?
yes

Strictly below 30 µM: is that where IC50 of CC(C)Cc1ccc(C(C)C(=O)NNC(=O)NOCc2ccccc2)cc1 (stereo not drawn) sits?
no

Strictly below 30 µM: is that where IC50 of CC(C(=O)NNC(=O)NCc1ccccc1)c1cccc(Cc2ccccc2)c1 (stereo not drawn) sits?
yes

Strictly below 30 µM: is that where IC50 of CC(C(=O)NNC(=O)NOCc1ccccc1)c1cccc(Oc2ccccc2)c1 (stereo not drawn) sits?
no

Strictly below 30 µM: is that where IC50 of CC(C(=O)NN)c1cccc(Cc2ccccc2)c1 (stereo not drawn) sits?
no

Strictly below 30 µM: is that where IC50 of CC(C(=O)NNC(=O)NCCc1ccccc1)c1cccc(Cc2ccccc2)c1 (stereo not drawn) sits?
yes

Strictly below 30 µM: is that where IC50 of CC(C(=O)NNC(=O)NC1CCCC1)c1cccc(Oc2ccccc2)c1 (stereo not drawn) sits?
no
